Here the recorded Fraction unbound, Albumax is given for each entry.
TARGET_ENTITY: Albumax medium (lipid rich bovine serum albumin) (Bos taurus, UniProt P02769)
Construct: purchased Gibco, Thermo Fisher Scientific
Sequence (P02769 25-607): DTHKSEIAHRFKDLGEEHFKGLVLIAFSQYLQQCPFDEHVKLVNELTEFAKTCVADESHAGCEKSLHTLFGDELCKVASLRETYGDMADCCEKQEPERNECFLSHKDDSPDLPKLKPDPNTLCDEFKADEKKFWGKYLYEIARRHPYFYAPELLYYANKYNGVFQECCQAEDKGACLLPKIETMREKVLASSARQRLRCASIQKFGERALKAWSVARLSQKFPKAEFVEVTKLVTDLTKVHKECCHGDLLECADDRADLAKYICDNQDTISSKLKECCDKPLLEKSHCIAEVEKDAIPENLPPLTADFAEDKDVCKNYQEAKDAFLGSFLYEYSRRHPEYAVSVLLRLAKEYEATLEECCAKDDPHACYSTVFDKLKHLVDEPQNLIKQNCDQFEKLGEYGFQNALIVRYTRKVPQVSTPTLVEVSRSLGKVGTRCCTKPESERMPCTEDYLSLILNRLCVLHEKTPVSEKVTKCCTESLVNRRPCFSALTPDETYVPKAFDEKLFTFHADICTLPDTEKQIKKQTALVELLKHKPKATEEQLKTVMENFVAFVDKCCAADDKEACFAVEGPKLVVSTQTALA
ASSAY_INFO: Binding in Albumax medium via ultracentrifugation
Type: in vitro ADME
MEASURED_ENDPOINT: Fraction unbound, Albumax

>>> print(df.to_string())
                                   molecule          measured_endpoint  measured_result
0  CC(C)(C)NCc1cc(C(C)(C)C)cc(-c2cnc(C(F)(F)F)c(F)c2)c1O  Fraction unbound, Albumax             0.21
1  COc1cc(N[C@H](C)CCCN)c2nccc(C)c2c1Oc1ccc(Cl)c(Cl)c1 [NPC1161B]  Fraction unbound, Albumax            0.035
2  CCc1nc(N)nc(N)c1OCCCOc1ccccc1CCC(=O)O.Cl  Fraction unbound, Albumax             0.41
3  CC(C)(C)NCc1cc(Nc2ccnc3cc(Cl)ccc23)c2c(c1O)CCCC2  Fraction unbound, Albumax             0.27
4  CS(=O)(=O)O.FC1CCN(CCOc2ccc(C3CCC4(CC3)OOC3(OO4)C4CC5CC(C4)CC3C5)cc2)CC1 (stereo not drawn)  Fraction unbound, Albumax           0.0070
5  CN(C)C[c-]1cccc1CNc1ccnc2cc(Cl)ccc12.[Fe+2].c1cc[cH-]c1 (stereo not drawn)  Fraction unbound, Albumax             0.52
6  Cc1cc(Nc2ccc(C(F)(F)F)nc2)n2nc(C(C)(F)F)nc2n1  Fraction unbound, Albumax             0.43
7  O=C(NCCN1CCCC1)c1cc(-c2ccc(CN3CCOCC3)cc2)nc2ccc(F)cc12  Fraction unbound, Albumax             0.55
8       CCN(CC)CCCNc1ccnc2cc(Cl)ccc12.Cl.Cl  Fraction unbound, Albumax             0.85

###

TARGET_ENTITY: CYP2D6 (Homo sapiens, UniProt P10635)
Sequence (P10635 whole entry): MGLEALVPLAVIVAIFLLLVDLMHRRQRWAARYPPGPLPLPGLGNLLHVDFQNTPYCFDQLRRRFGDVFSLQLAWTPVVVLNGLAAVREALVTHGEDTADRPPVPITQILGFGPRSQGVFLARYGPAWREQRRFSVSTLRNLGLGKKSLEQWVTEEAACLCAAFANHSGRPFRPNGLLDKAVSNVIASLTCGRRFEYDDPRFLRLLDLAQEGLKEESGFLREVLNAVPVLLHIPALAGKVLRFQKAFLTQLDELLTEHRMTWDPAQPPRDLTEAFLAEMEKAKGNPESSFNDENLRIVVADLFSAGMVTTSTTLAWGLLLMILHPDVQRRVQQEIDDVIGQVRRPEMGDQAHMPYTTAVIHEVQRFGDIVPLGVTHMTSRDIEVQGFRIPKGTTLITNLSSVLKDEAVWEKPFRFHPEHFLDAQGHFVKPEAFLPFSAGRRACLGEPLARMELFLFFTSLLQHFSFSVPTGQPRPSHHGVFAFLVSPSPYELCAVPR
ASSAY_INFO: in vitro
PROTOCOL_CONDITIONS: human, microsomes, pH 7.4
Procedure: The CYP inhibition assay was based on a previous publication with minor modifications. The method uses human liver microsomes and a substrate-specific interaction approach which relies on the formation of a metabolite that is mediated by a specific CYP isoform. […] Concentrations of the substrate-specific metabolites in quenched samples were determined by LC–MS (Additional file 1: Table S5) relative to calibration standards prepared in quenched microsomal matrix. […]
MEASURED_ENDPOINT: inhibition at 20 µM (%)

>>> df
                                   compound                          target_entity    measured_endpoint  measurement_units  measured_result
0  Cc1nc(Nc2ncc(N3CCN(C)[C@H](C)C3)c(Nc3cc(C)n(C)n3)n2)cc(C2CC2)c1F  CYP2D6 (Homo sapiens, UniProt P10635)  inhibition at 20 µM                  %               35
1  CS(=O)(=O)c1ccc(-c2cnc(N)c(-c3ccc(C(F)(F)F)nc3)c2)cc1  CYP2D6 (Homo sapiens, UniProt P10635)  inhibition at 20 µM                  %               16
2             CCc1nc(N)nc(N)c1-c1ccc(Cl)cc1  CYP2D6 (Homo sapiens, UniProt P10635)  inhibition at 20 µM                  %               36
3  COc1cc(NC(C)CCCN)c2ncccc2c1 (centres unmarked)  CYP2D6 (Homo sapiens, UniProt P10635)  inhibition at 20 µM                  %               33
4  COc1cc(C)c2c(Oc3cccc(C(F)(F)F)c3)c(OC)cc(NC(C)CCCN)c2n1 (centres unmarked)  CYP2D6 (Homo sapiens, UniProt P10635)  inhibition at 20 µM                  %               35
